pIC50 values, listed per item
TARGET: isolated human 20S proteasome, CT-L activity (Homo sapiens, UniProt P20618+P28074)
Construct: human purified erythrocyte-derived 20S proteasome; purchased Enzo Life Sciences, Inc; host or cells: human erythrocytes (natural source)
EXPERIMENTAL_PROTOCOL: Proteasome inhibition assay in isolated human 20S proteasomes (Proteasome-Glo), CT-L activity
Assay type: biochemical
TEST_CONDITIONS: mean ± SD; read-out: IC50, CT-L, isolated human 20S proteasome
pIC50: −log10 of the molar value.

CPD_SMILES: O=C1c2ccccc2C(=O)c2c(Nc3ccc(S(=O)(=O)N(CCO)CCO)cc3)ccc(O)c21
pIC50: 5.25
--
CPD_SMILES: C#CCCN1CCN(c2ccc(-n3c(=O)ccc4cnc5ccc(-c6ccc(N)nc6)cc5c43)cc2C(F)(F)F)CC1
pIC50: 4.29

* * *

System: HCT116 cells
EXPERIMENTAL_PROTOCOL: Cell viability, MTT assay, HCT116
Type: cell-based, human
TEST_CONDITIONS: Homo sapiens, HCT-116; 72 h, mean ± SD
pIC50: −log10 of the molar value.
pIC50 values, listed per item
MEASURED_PROPERTY: pIC50

COMPOUND: CC(C)c1nc(CN(C)C(=O)N[C@@H](CCN2CCOCC2)C(=O)N[C@H](CC[C@H](Cc2ccccc2)NC(=O)OCc2cncs2)Cc2ccccc2)cs1 [Compound 5, cobicistat, reference compound]
TARGET: HCT116 cells
MEASURED_PROPERTY: pIC50
NUMBER: 4.23
--
COMPOUND: Cc1ccc2ccccc2c1CSc1ncnc2c1ncn2C1OC(CO)C(O)C1O (stereo not shown) [Compound 1]
TARGET: HCT116 cells
MEASURED_PROPERTY: pIC50
NUMBER: 4.18
--
COMPOUND: CC(C)C[C@H](NC(=O)[C@H](Cc1ccccc1)NC(=O)c1cnccn1)B(O)O [Bortezomib, bortezomib, reference compound]
TARGET: HCT116 cells
MEASURED_PROPERTY: pIC50
NUMBER: 7.97
--
COMPOUND: C#CCCN1CCN(c2ccc(-n3c(=O)ccc4cnc5ccc(-c6ccc(N)nc6)cc5c43)cc2C(F)(F)F)CC1 [Compound 4]
TARGET: HCT116 cells
MEASURED_PROPERTY: pIC50
NUMBER: 5.99

* * *

TARGET: 20S proteasome in HCT116 cell lysates, C-L activity (Homo sapiens, UniProt P28072)
Sequence (P28072 35-239 limits assumed): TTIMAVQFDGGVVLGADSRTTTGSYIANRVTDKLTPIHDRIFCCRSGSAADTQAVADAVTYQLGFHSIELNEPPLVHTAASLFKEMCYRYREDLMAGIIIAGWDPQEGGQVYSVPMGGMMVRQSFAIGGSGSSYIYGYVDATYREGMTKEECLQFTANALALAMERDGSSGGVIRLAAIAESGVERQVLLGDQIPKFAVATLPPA
Sequence (Q99436 44-277 partner): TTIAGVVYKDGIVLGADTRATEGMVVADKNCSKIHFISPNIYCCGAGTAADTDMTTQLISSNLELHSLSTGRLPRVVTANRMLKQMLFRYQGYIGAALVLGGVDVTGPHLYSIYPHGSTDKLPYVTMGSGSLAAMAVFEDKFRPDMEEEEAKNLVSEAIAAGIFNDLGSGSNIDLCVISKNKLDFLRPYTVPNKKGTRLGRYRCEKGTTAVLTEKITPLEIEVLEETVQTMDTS
EXPERIMENTAL_PROTOCOL: Proteasome inhibition assay in cell lysates, HCT116, C-L
TEST_CONDITIONS: read-out: percentage of proteasome inhibition, C-L, cell lysates HCT-116, at 10 µM

COMPOUND: CC(C)c1nc(CN(C)C(=O)N[C@@H](CCN2CCOCC2)C(=O)N[C@H](CC[C@H](Cc2ccccc2)NC(=O)OCc2cncs2)Cc2ccccc2)cs1 [Compound 5, cobicistat, reference compound]
inhibition at 10 µM (%): 0

COMPOUND: Cc1ccc2ccccc2c1CSc1ncnc2c1ncn2C1OC(CO)C(O)C1O (centres unmarked)
inhibition at 10 µM (%): 0

COMPOUND: O=C1c2ccccc2C(=O)c2c(Nc3ccc(S(=O)(=O)N(CCO)CCO)cc3)ccc(O)c21
inhibition at 10 µM (%): 11.1

COMPOUND: C#CCCN1CCN(c2ccc(-n3c(=O)ccc4cnc5ccc(-c6ccc(N)nc6)cc5c43)cc2C(F)(F)F)CC1
inhibition at 10 µM (%): 69.2

COMPOUND: Cc1ccc(/C(=N/NS(=O)(=O)c2ccc([N+](=O)[O-])cc2)Sc2cc(Cl)c(C)cc2S(N)(=O)=O)cc1
inhibition at 10 µM (%): 0
